- ASSAY TEXT: NCI Yeast Anticancer Drug Screen. Data for the wt1 strain (AID 149);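 further: 0% = growth of vehicle-treated wt1 cultures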
- TEST CONDITIONS: S. cerevisiae wt1 strain (SPY 50644) growth inhibition; at 11.0 µM; hits give high values
About 79,000 compounds went through this panel and 15% of them were active in at least one assay; those are over-represented in the sample as a whole.
OBSERVED PROPERTY: growth inhibition (%)
Answers are plain numbers, in %.

Past entries and their recorded results:
Cc1cccc2c1C1c3c(C)cccc3C(CC(=O)O)CC1CC2 (stereo not given) = 98
Cc1cc(Cl)ccc1NC(=O)/C(Cl)=C(/Cl)C(=O)O = 0
CCO/C=C1\SC(=S)N(c2ccc(OCC)cc2)C1=O = -50
COc1ccc(-c2cc(-c3cc(C)cc(Cl)c3O)nc3[nH]c(=S)[nH]c(=S)c23)cc1 = 0
CC1=CC(C)(C)SC(SSSC2=NC(C)=CC(C)(C)S2)=N1 = 0

Provide reported growth inhibition for each item, in the same order as listed.
1. COc1cc([C@@H]2c3cc4c(cc3[C@@H](NC(=O)NO)[C@H]3COC(=O)[C@H]23)OCO4)cc(OC)c1O
2. O=c1cccccc1[O-].O=c1cccccc1[O-].O=c1cccccc1[O-].[Eu+3]
3. CCCCCCCCN1COCC(COc2ccccc2C)OC1 (stereo not given)

1
14
2

Provide reported growth inhibition for each item, in the same order as listed.
1. CC1CN(/N=C\c2ccc([N+](=O)[O-])o2)C(=O)O1 (stereo not given)
2. O=C(Nn1c(-c2ccccc2)nc2ccccc2c1=O)c1ccc(CS)cc1

1: -2; 2: -1

----------
- ASSAY TEXT: NCI Yeast Anticancer Drug Screen. Data for the rad18 strain (AID 177)
- TEST CONDITIONS: S. cerevisiae rad18 mutant growth inhibition; at 1.2 µM
Compounds without any hit were thinned out: in the full panel of roughly 79,000, 15% have a hit. Active and inactive are the calls of the source. Rule as the data show it: active = growth inhibition above about 70%; inactive = the rest.
// classify into active, inactive

CC(C)(Br)C(=O)/C=C/c1ccccc1 = active
Brc1ccc(B2Nc3ccccc3N2)cc1 = inactive
Cc1cc(O)c(C(C)C)cc1SC#N = inactive
CCCNC(=O)OCc1c(COC(=O)NCCC)c(-c2ccc(Cl)c(Cl)c2)n2c1CCC2 = inactive

GET /call?item= `CN(C)/C(=N/C(=S)Nc1ccccc1)SCc1ccccc1` returns the recorded outcome of this test.
inactive

GET /call?item= `Nc1ccc(/C=C/c2ccc3cccnc3c2)cc1` returns the recorded outcome of this test.
inactive

GET /call?item= `Clc1nc(Cl)nc(Nc2cccc3ccccc23)n1` returns the recorded outcome of this test.
inactive

GET /call?item= `OB(O)c1ccccc1C#Cc1ccccc1` returns the recorded outcome of this test.
inactive

GET /call?item= `Cc1ccc(NC(Nc2ccc(C)cc2C)=C(C(Cl)=C(Cl)Cl)[N+](=O)[O-])c(C)c1` returns the recorded outcome of this test.
inactive

----------
- ASSAY TEXT: NCI Yeast Anticancer Drug Screen. Data for the sgs1 strain (AID 173);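 further: 0% = growth of vehicle-only control cultures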
- TEST CONDITIONS: S. cerevisiae sgs1 mutant, at 3.7 µM, hits give high values
The panel holds about 79,000 compounds, 15% with a hit somewhere; the sample as a whole holds those more often.
OBSERVED PROPERTY: growth inhibition (%)
Give bare numbers, in %.

COc1ccc2nc3cccc([N+](=O)[O-])c3c(NCCNCCN(C)C)c2c1 = -1

Provide reported growth inhibition for each item, in the same order as listed.
1. Cc1oc2ccccc2c(=O)c1Cn1nnc2ccccc21
2. CC(/C=C/c1ccc([N+](=O)[O-])o1)=N/N1CC(CN2CCOCC2)OC1=O (stereo not drawn)
3. CC1(C)OC(=O)C(=Cc2ccc([N+](=O)[O-])s2)C(=O)O1
4. Cc1cc(O)c(C(C)C)cc1SC#N

1. 1
2. 3
3. -25
4. -24

Provide reported growth inhibition for each item, in the same order as listed.
1. CC(C)OC(=O)NNc1c(Cl)cc(Cl)cc1Cl
2. CCCCCCCN(CCCCCCC)CC(=O)c1ccc2cc(Cl)c3ccccc3c2c1

[-2, 26]

Provide reported growth inhibition for each item, in the same order as listed.
1. O=C(O)C1CCCCC1c1c2ccc(=O)cc-2oc2cc(O)ccc12 (stereo not drawn)
2. NC(N)=NS(=O)(=O)c1ccc(Nc2c3ccccc3nc3c(C(=O)NC(CO)(CO)CO)cccc23)cc1
3. C=CCNC1=C2C[C@@H](C)C[C@H](OC)[C@H](O)[C@@H](C)/C=C(\C)[C@H](OC(N)=O)[C@@H](OC)/C=C\C=C(/C)C(=O)NC(=CC1=O)C2=O
4. O=C(O)C(=Cc1ccc(-c2ccccc2)cc1)C(=O)O
5. O=C1Nc2ccc(Br)cc2C1=Nc1ccc(Cl)cc1

1: -15; 2: 1; 3: -10; 4: 7; 5: -27

----------
- ASSAY TEXT: NCI Yeast Anticancer Drug Screen. Data for the mgt1 strain (AID 153)
- TEST CONDITIONS: S. cerevisiae mgt1 mutant growth inhibition; at 100.0 µM; hits give high values
- Experimental: Growth inhibition of yeast strains with defined genetic alterations is measured as a screen for potential anti-cancer activity. Selected strains with alterations in DNA damage repair or cell cycle control were exposed to compounds and growth inhibition was measured relative to vehicle treated controls. The strain used in this assay is mgt1
The panel holds about 79,000 compounds, 15% with a hit somewhere; the sample as a whole holds those more often.
OBSERVED PROPERTY: growth inhibition (%)
Answers are plain numbers, in %.

COc1cc(C(=O)C=O)cc(OC)c1OC = 94

Provide reported growth inhibition for each item, in the same order as listed.
1. O=C(Nc1cccs1)c1ccccc1
2. C=C(C(=O)OC)N1C(=O)CC(C)C1=O (configuration not stated)
3. COC(=O)C(=O)CC(=O)c1cccc(OC)c1

[88, 71, 40]

----------
- ASSAY TEXT: NCI Yeast Anticancer Drug Screen. Data for the mec2-1 strain (AID 157)
- TEST CONDITIONS: S. cerevisiae mec2-1 strain, at 5.0 µM (retest, dose inferred, filed as 0.5), hits give high values
- Experimental: Growth inhibition of yeast strains with defined genetic alterations is measured as a screen for potential anti-cancer activity. Selected strains with alterations in DNA damage repair or cell cycle control were exposed to compounds and growth inhibition was measured relative to vehicle treated controls. The strain used in this assay is mec2-1
This is part of a sample that, as a whole, favours compounds with a hit. Of some 79,000 tested, about 15% had one in any assay.
OBSERVED PROPERTY: growth inhibition (%)
One number for each entry, in %.

O=S(=O)(NC1CCCC(c2ccccc2)C1)c1ccccc1 (stereo unspecified) = -12

Provide reported growth inhibition for each item, in the same order as listed.
1. CC(=O)/C(=C\c1ccc(Cl)c(Cl)c1)C(=O)C(C)CN(C)C (stereo unspecified)
2. O=C(C(Cl)=C(N1CCCCC1)N1CCCCC1)C(Cl)Cl
3. CN(C)CCNC(=Cc1ccc2ccccc2[n+]1C)NCCN(C)C
4. CN(C)CCCn1c2c3ccccc3ccc2c2oc(=O)c3ccccc3c21

1. 9
2. 11
3. 0
4. 21

Supply recorded growth inhibition for `CC(=O)/C=C/c1cccc([N+](=O)[O-])c1` here.
2

----------
- ASSAY TEXT: NCI Yeast Anticancer Drug Screen. Data for the cln2 rad14 strain (AID 165);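 further: 0% = growth equal to vehicle treated cultures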
- TEST CONDITIONS: S. cerevisiae cln2 rad14 strain, at 50.0 µM (retest, dose inferred, filed as 5.0)
The panel holds about 79,000 compounds, 15% with a hit somewhere; the sample as a whole holds those more often. Activity calls are given as the source filed them. Cut-off read from the data, not from the text of the source: active = growth inhibition above about 70%; inactive = the rest.
// classify into 1 for active, 0 for inactive

Cc1cccc(/C=N/NC(=S)NC2CCCCC2)n1 = 0
CC(C)=CCC/C(C)=C/CN1C(=O)C=CC1=O = 1
CCCCCCCCCCCNC=O = 1

Continue with the next compound.
GET /call?item= `CC(C)=CCc1c2c(c(O)c3c(=O)c(-c4ccc(O)c(O)c4)coc13)C=CC(C)(C)O2` returns the recorded outcome of this test.
1

----------
- ASSAY TEXT: NCI Yeast Anticancer Drug Screen. Data for the bub3 strain (AID 167)
- TEST CONDITIONS: S. cerevisiae bub3 mutant strain, at 5.0 µM (retest, dose inferred, filed as 0.5)
Compounds without any hit were thinned out: in the full panel of roughly 79,000, 15% have a hit. The source made the active and inactive calls. No stated cut-off is given here; in the data, active means growth inhibition above about 70%; inactive means the rest.
// classify into 1 (active), 0 (inactive)

Completed entries (count: 5):
Oc1ccc(N=Nc2ccc(Cl)cc2)cc1 = 1
CCOC(=O)CC1(C)/C(=N\Nc2ccc([N+](=O)[O-])cc2[N+](=O)[O-])CCC2C1CCC1(C)C(C(C)CCCC(C)C)CCC21 (stereo unspecified) = 0
OC1(C#CI)CCCCC1 = 0
CCOC(=O)C(Cc1c2ccccc2cc2ccccc12)(NC(C)=O)C(=O)OCC = 0
CC1(C)CC(=O)C(C(=O)Nc2cccs2)=C(O)C1 = 0

GET /call?item= `CC1(C)OC(=O)C(=Cc2ccc([N+](=O)[O-])s2)C(=O)O1` returns the recorded outcome of this test.
0

GET /call?item= `O=[N+]([O-])c1ccc2nc(=S)[nH]n2c1` returns the recorded outcome of this test.
0

GET /call?item= NC(CS)C(=O)NCCNc1ccc(NCCNC(=O)C(N)CS)c2c1C(=O)c1c(O)ccc(O)c1C2=O (stereo unspecified) returns the recorded outcome of this test.
0

GET /call?item= `Oc1ccc(C2(c3ccc(O)cc3)CCCC2)cc1` returns the recorded outcome of this test.
0

GET /call?item= CC1=CN2C(c3ccccc3)=NON(c3ccc(C)cn3)C2C=C1 (stereo unspecified) returns the recorded outcome of this test.
0

GET /call?item= `O=C(Nc1ccc(Cl)cc1)c1cc2cc(N=Nc3ccccc3Cl)ccc2oc1=O` returns the recorded outcome of this test.
0
